Target: ERα (Homo sapiens)
Sequence (P03372 whole entry): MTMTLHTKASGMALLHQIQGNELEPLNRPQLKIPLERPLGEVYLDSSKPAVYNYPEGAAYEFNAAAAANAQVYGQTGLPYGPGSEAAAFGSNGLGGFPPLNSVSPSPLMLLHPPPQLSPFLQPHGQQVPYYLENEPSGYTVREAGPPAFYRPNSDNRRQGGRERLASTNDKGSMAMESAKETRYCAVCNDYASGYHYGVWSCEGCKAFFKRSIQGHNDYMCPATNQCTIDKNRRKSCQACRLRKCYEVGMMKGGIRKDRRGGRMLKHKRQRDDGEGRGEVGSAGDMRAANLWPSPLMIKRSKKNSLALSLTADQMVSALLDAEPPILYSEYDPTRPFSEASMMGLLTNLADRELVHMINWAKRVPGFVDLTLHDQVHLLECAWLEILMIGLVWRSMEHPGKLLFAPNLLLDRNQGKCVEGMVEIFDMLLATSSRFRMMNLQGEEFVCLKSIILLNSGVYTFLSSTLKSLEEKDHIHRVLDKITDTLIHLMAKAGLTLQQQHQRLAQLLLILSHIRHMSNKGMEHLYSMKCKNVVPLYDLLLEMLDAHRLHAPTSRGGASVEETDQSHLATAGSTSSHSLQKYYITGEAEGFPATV
Experiment: ERE-dependent luciferase gene transcription in MCF-7:D5L cells
Assay type: cell-based
Parameters: MCF-7:D5L cells, a clone of MCF-7 cells stably transfected with an Estrogen Response Element (ERE)-endowed reporter plasmid; endogenous in cells; host or cells: MCF-7:D5L (MCF-7 clone carrying pERE-Gl-Luciferase)
Details: % of AUC of luciferase response of archetypal 3, 4, 5 or 8 up to 0.3, 10, 1.0 and 3.0 μM
Method: Assessment of ER/ERE-dependent luciferase gene transcription in MCF-7:D5L (express ERα) and HEK:ERβ cells (express ERβ) and determination of ER transcriptional agonism was carried as already described. […] The AUC of the isoflavonoids of each group were then expressed as % of the AUC of the respective archetypal isoflavone. […]
Items are presented alongside their recorded Induction of ERE-dependent Luciferase Transcription (MCF-7:D5L cells) AUC (%).
Response body: numeric value in %, unit text excluded.

Input: Quote Induction of ERE-dependent Luciferase Transcription (MCF-7:D5L cells) AUC (%) reported for `COc1cc(O)cc2occ(-c3ccc(O)c(O)c3)c(=O)c12` please.
Output: 103

Input: Using known records, supply Induction of ERE-dependent Luciferase Transcription (MCF-7:D5L cells) AUC (%) for O=c1c(-c2ccc(OC3O[C@H](CO)[C@@H](O)[C@H](O)[C@H]3O)cc2)coc2c(C3O[C@H](CO)[C@@H](O)[C@H](O)[C@H]3O)c(O)cc(O)c12 (some centres unmarked)
Output: 30

Input: Annotate the molecule O=c1c(-c2ccc(OC3O[C@H](CO)[C@@H](O)[C@H](O)[C@H]3O)cc2)coc2cc(OC3O[C@H](CO)[C@@H](O)[C@H](O)[C@H]3O)cc(O)c12 (some centres unmarked) with its measured Induction of ERE-dependent Luciferase Transcription (MCF-7:D5L cells) AUC (%).
Output: 75

***
Input: # return recorded Induction of ERE-dependent Luciferase Transcription (MCF-7:D5L cells) AUC (%) for input `COc1cc(O)cc2occ(-c3ccc(O)cc3)c(=O)c12`
Output: 100

Input: Indicate the recorded Induction of ERE-dependent Luciferase Transcription (MCF-7:D5L cells) AUC (%) value for this molecule: O=c1c(-c2ccc(O)c(O)c2)coc2c(C3OC(CO)C(O)C(O)C3O)c(O)cc(O)c12 (centres unmarked)
Output: 1.6

Input: Answer with the recorded Induction of ERE-dependent Luciferase Transcription (MCF-7:D5L cells) AUC (%) of COc1cc(-c2coc3c(C4OC(CO)C(O)C(O)C4O)c(O)cc(O)c3c2=O)ccc1O (centres unmarked) only.
Output: 77
